molecular target: Aldehyde dehydrogenase 1A1 (Homo sapiens) (UniProt P00352); assay: qHTS Assay for Inhibitors of Aldehyde Dehydrogenase 1 (ALDH1A1); details: Purified ALDH1A1, NADH fluorescence, propionaldehyde substrate; series mostly up to 75.3 µM
Sequence (P00352 whole entry, looked up): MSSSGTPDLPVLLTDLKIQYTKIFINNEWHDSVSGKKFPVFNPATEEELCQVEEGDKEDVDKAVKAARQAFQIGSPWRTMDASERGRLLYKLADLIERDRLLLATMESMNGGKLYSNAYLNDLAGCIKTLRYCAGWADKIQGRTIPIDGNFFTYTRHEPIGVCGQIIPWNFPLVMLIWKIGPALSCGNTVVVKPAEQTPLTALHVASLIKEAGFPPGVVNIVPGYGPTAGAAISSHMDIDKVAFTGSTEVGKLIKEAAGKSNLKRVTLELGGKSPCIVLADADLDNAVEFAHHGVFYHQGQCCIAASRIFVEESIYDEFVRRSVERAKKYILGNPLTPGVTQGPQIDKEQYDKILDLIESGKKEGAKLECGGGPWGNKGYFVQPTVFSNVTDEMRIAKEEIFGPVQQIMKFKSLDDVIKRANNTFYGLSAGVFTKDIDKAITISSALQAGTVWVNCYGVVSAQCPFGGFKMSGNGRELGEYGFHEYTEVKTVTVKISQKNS
Out of some 220,000 compounds screened, about 16,000 (7.3%) were called active. Inconclusive results (about 25%) are left out. Calls follow the shape of the dose curve; as a rule, active = well fitted inhibition curve with a large enough effect (not every such curve was filed as active); inconclusive = small, poorly fitted or top-dose-only effect, or another doubt; inactive = no such curve, though single readings can be large or run the other way. The list comes from a sample in which actives are over-represented; it also holds close analogues and randomly drawn compounds.
Assign a class; possible classes are 1.0 for active, 0.0 for inactive

Examples with answers:
{"columns": ["compound", "target or system", "category label"],
 "data": [
  ["COc1ccccc1-n1ccnc1SCC(=O)NC(C)(C)C", "Aldehyde dehydrogenase 1A1 (Homo sapiens) (UniProt P00352)", 0.0],
  ["FC(F)(F)c1cc(-c2ccco2)nc(N2CCOCC2)n1", "Aldehyde dehydrogenase 1A1 (Homo sapiens) (UniProt P00352)", 0.0],
  ["CC(=O)Nc1ccc(OCCC[n+]2cccc(C(=O)[O-])c2)cc1", "Aldehyde dehydrogenase 1A1 (Homo sapiens) (UniProt P00352)", 0.0],
  ["O=C(OCc1cc(Cl)ccc1OC(F)F)c1cccnc1", "Aldehyde dehydrogenase 1A1 (Homo sapiens) (UniProt P00352)", 0.0],
  ["O=C(CN1CCN(S(=O)(=O)/C=C/c2ccccc2)CC1)Nc1ccc(N2CCOCC2)cc1", "Aldehyde dehydrogenase 1A1 (Homo sapiens) (UniProt P00352)", 0.0],
  ["Cc1c(C=O)c2ccccc2n1CC(=O)O", "Aldehyde dehydrogenase 1A1 (Homo sapiens) (UniProt P00352)", 0.0],
  ["NC(=S)N/N=C/c1ccc([N+](=O)[O-])cc1", "Aldehyde dehydrogenase 1A1 (Homo sapiens) (UniProt P00352)", 0.0],
  ["Cc1ccc2nc(-c3ccncc3)cc(C(=O)Nc3ccc(OC(F)F)cc3)c2c1", "Aldehyde dehydrogenase 1A1 (Homo sapiens) (UniProt P00352)", 0.0],
  ["O=[N+]([O-])c1ccc(N/N=C/c2ccccc2)cc1", "Aldehyde dehydrogenase 1A1 (Homo sapiens) (UniProt P00352)", 1.0],
  ["COc1ccc(NC(=O)COC(=O)c2ccncc2)c(OC)c1", "Aldehyde dehydrogenase 1A1 (Homo sapiens) (UniProt P00352)", 0.0]
]}

Ask: Check the results log: what was the call for "N#Cc1cccc(CS(=O)(=O)c2nnnn2-c2cc(C(F)(F)F)cc(C(F)(F)F)c2)c1" ?
Reply: 0.0

Ask: Another compound to look at: "Cc1cccc(COc2ccccc2/C=N/Nc2ccc([N+](=O)[O-])cc2)c1"
Reply: 0.0

Ask: Another compound to look at: COc1cccc(CNC(=O)CCC2CCCN(C(=O)c3cc(C)[nH]n3)C2)c1 (centres undefined)
Reply: 0.0

Ask: Another compound to look at: "CCN(CC)CC(=O)Nc1sc2c(c1C(=O)c1ccccc1C)CCC2"
Reply: 0.0

Ask: Another compound to look at: "CCOC(=O)Cc1ncccc1C(=O)Nc1ccc(OC(F)(F)F)cc1"
Reply: 0.0

Ask: Another compound to look at: "CC(C)C[C@H](NC(=O)[C@H](O)[C@H](N)Cc1ccccc1)C(=O)O"
Reply: 0.0

Ask: Another compound to look at: Cc1ccc(C(=O)OC2CCCN(C)C2)cc1 (centres undefined)
Reply: 0.0

* * *

biological target: Aldehyde dehydrogenase 1A1 (Homo sapiens) (UniProt P00352); experiment: qHTS Assay for Inhibitors of Aldehyde Dehydrogenase 1 (ALDH1A1); settings: Purified ALDH1A1, NADH fluorescence, propionaldehyde substrate; series mostly up to 75.3 µM
Out of some 220,000 compounds screened, about 16,000 (7.3%) were called active. Another 25% or so got no clear call; they are omitted. The call rests on the fitted dose curve; in most records, active means well fitted inhibition curve with a large enough effect (not every such curve was filed as active); inconclusive means small, poorly fitted or top-dose-only effect, or another doubt; inactive means no such curve, though single readings can be large or run the other way. Many of the other results were omitted from the sample, so actives are more common in it than they were.
Assign a class; possible classes are active, inactive

Ask: Check the results log: what was the call for "CCOC(=O)c1c(NC(=S)NC(=O)/C=C/c2cccs2)sc(C)c1C" ?
Reply: inactive

Ask: Another compound to look at: "Cc1ccc2[nH]c3c(c2c1)CN(C(=O)CN1CCN(c2ccccc2)CC1)CC3"
Reply: active

Ask: Another compound to look at: "COC(=O)CN1C(=O)N/C(=C/c2ccc(OC)c(C)c2OC)C1=O"
Reply: active

Ask: Another compound to look at: COc1ccc(N(CC(=O)NC2CCCC2)C(=O)CS(=O)CC(=O)Nc2ccc3c(c2)OCO3)cc1 (stereo not drawn)
Reply: inactive

Ask: Another compound to look at: "CCc1nnc(NS(=O)(=O)c2ccc(NC(=S)NC(=O)c3cccs3)cc2)s1"
Reply: active

Ask: Another compound to look at: "O=C(Nc1ccc(N2CCOCC2)cc1)c1ccc(-c2ccccc2[N+](=O)[O-])o1"
Reply: inactive

Ask: Another compound to look at: "Cc1cc(C(=O)NNC(=O)c2cccc(S(=O)(=O)N3CCOCC3)c2)c2ccccc2n1"
Reply: inactive

Ask: Another compound to look at: "O=C(O)c1ccccc1-c1ccccc1C(=O)NCc1cccnc1"
Reply: inactive

Ask: Another compound to look at: "O=C(c1cccc(S(=O)(=O)N2CCOCC2)c1)N1CCOCC1"
Reply: inactive

Ask: Another compound to look at: "CCc1nnc(NS(=O)(=O)c2ccc(NS(=O)(=O)c3ccccc3)cc2)s1"
Reply: inactive

* * *

biological target: Aldehyde dehydrogenase 1A1 (Homo sapiens); experiment: qHTS Assay for Inhibitors of Aldehyde Dehydrogenase 1 (ALDH1A1); settings: Purified ALDH1A1, NADH fluorescence, propionaldehyde substrate; series mostly up to 75.3 µM; also: potency is read from the fitted curve at half-maximal effect
Screen size: about 220,000 compounds; about 16,000 (7.3%) were called active. Another 25% or so got no clear call; they are omitted. Many of the other results were omitted from the sample, so actives are more common in it than they were.
measurement type: Potency

# count of solved cases: 10
{"columns": ["compound", "target or system", "measurement type", "meas value"],
 "data": [
  ["COc1ccc(-c2nc3c(c4c2C[C@H](c2ccccc2)OC4)CN(C(=O)C2CC2)CC3)c(C)c1", "Aldehyde dehydrogenase 1A1 (Homo sapiens)", "Potency", "398 nM (active)"],
  ["Cc1ccc(OCC(=O)N2CCN(C(=O)c3cccnc3)CC2)cc1", "Aldehyde dehydrogenase 1A1 (Homo sapiens)", "Potency", "inactive"],
  ["COc1ccc(-c2nc3c(c4c2C[C@H](c2ccccc2)OC4)CN(C(=O)c2ccco2)CC3)c(C)c1", "Aldehyde dehydrogenase 1A1 (Homo sapiens)", "Potency", "1780 nM (active)"],
  ["COC(=O)c1ccccc1NC(=S)NC(=O)c1ccccc1F", "Aldehyde dehydrogenase 1A1 (Homo sapiens)", "Potency", "inactive"],
  ["CONc1nc2nonc2nc1NOC", "Aldehyde dehydrogenase 1A1 (Homo sapiens)", "Potency", "inactive"],
  ["NS(=O)(=O)c1ccc(NC(=S)NC(=O)c2cccnc2)cc1", "Aldehyde dehydrogenase 1A1 (Homo sapiens)", "Potency", "inactive"],
  ["CCOC(=O)COc1ccc([N+](=O)[O-])cc1", "Aldehyde dehydrogenase 1A1 (Homo sapiens)", "Potency", "inactive"],
  ["COC(=O)c1ccc(CSc2nncn2N)cc1", "Aldehyde dehydrogenase 1A1 (Homo sapiens)", "Potency", "inactive"],
  ["O=C(/C=C/c1ccccc1Cl)Nc1ccc(S(=O)(=O)Nc2ncccn2)cc1", "Aldehyde dehydrogenase 1A1 (Homo sapiens)", "Potency", "inactive"],
  ["NS(=O)(=O)c1ccc(NC(=S)NC(=O)c2cccc(Br)c2)cc1", "Aldehyde dehydrogenase 1A1 (Homo sapiens)", "Potency", "25100 nM (active)"]
]}

Ask: Find the recorded Potency belonging to CCC(C)NC(=O)Cn1nc(C(F)(F)F)c2c1CCC2 (stereo not given) and report it.
Reply: inactive

Ask: Another compound to look at: "O=C(NC(=S)Nc1cccc2c(O)cccc12)c1cccc(Br)c1"
Reply: 3160 nM (active)

Ask: Another compound to look at: "COc1ccc(-c2nc3cc([N+](=O)[O-])ccc3o2)cc1OC"
Reply: inactive

Ask: Another compound to look at: "CCOC(=O)C1CCN(C(=O)C2(NC(=O)Nc3cccc(F)c3)CCCCC2)CC1"
Reply: inactive

Ask: Another compound to look at: "CC/C(=N\NC(=S)NC(C)C)c1ccc(OC(F)F)cc1"
Reply: inactive

* * *

molecular target: Aldehyde dehydrogenase 1A1 (Homo sapiens); test: qHTS Assay for Inhibitors of Aldehyde Dehydrogenase 1 (ALDH1A1); conditions: Purified ALDH1A1, NADH fluorescence, propionaldehyde substrate; series mostly up to 75.3 µM; also: potency is read from the fitted curve at half-maximal effect
Screen size: about 220,000 compounds; about 16,000 (7.3%) were called active. Roughly 25% stayed inconclusive and do not appear here. The list comes from a sample in which actives are over-represented; it also holds close analogues and randomly drawn compounds.
measurement type: Potency

# count of solved cases: 5
{"columns": ["molecule", "target or system", "measurement type", "meas value"],
 "data": [
  ["CC(C)(C)C(=O)CCN1C(=O)C2(OCCO2)c2ccccc21", "Aldehyde dehydrogenase 1A1 (Homo sapiens)", "Potency", "inactive"],
  ["CCOC(=O)CN1C(=O)C(O)(CC(=O)c2ccccn2)c2ccccc21 (stereo unspecified)", "Aldehyde dehydrogenase 1A1 (Homo sapiens)", "Potency", "224 nM (active)"],
  ["CC(C(=O)NC1CCCC1)N(c1ccc(Oc2ccccc2)cc1)S(C)(=O)=O (stereo unspecified)", "Aldehyde dehydrogenase 1A1 (Homo sapiens)", "Potency", "inactive"],
  ["C=CCN1C(=O)C(O)(CC(=O)c2ccccn2)c2ccccc21 (stereo unspecified)", "Aldehyde dehydrogenase 1A1 (Homo sapiens)", "Potency", "355 nM (active)"],
  ["C=CCNc1nc(Nc2ccc(Cl)cc2)nc(OC)n1", "Aldehyde dehydrogenase 1A1 (Homo sapiens)", "Potency", "inactive"]
]}

Continue with the molecule presented below.
Ask: Find the recorded Potency belonging to "CCCCNC(=O)C(=O)c1ccccc1NC(C)=O" and report it.
Reply: inactive
